# Tested on: SW-620 colon
# Assay: NCI tumour cell line growth inhibition, 48 h
Measurement Type: TGI

O=C1c2ccccc2CCC1(Br)Br	1.53 µM

The recorded TGI for entry `COc1ccc(C(=O)c2cc(OC)c(OC)c(OC)c2)cc1/C=C/C(=O)c1ccc2c(c1)OCO2` equals 3.77 µM

The molecule listed as COCO[C@@H]1CC2C=Nc3cc(OCc4ccccc4)c(OC)cc3C(=O)N2C1 (stereo partly specified) has a reported TGI of 8.61 µM

In plain terms, `CN(C)C=Nc1c(Br)cc(Br)c2nonc12` has a documented TGI of > 100 µM

----------
// TGI lookup, one value per entry
# Test system: SNB-19 CNS
# Assay: NCI tumour cell line growth inhibition, 48 h
All answers are understood in µM, so give the number only.

O=C1C(Cl)C(c2cccc(Br)c2)N1c1c(O)c(Cl)cc(Br)c1Cl (stereo unspecified)	11.5
COc1cccc(N2C(=O)[C@H]3[C@H]4CC(C(C)(C)C)CC[C@H]4c4c([nH]c5ccccc45)[C@H]3C2=O)c1 (stereo partly specified)	33.9
CCC[CH2][Ge]([CH2]CCC)([CH2]CCC)[O]C(=O)C(OC(C)=O)c1ccccc1 (stereo unspecified)	36.9
C/C=C/C=C\C(=O)C1c2cccc(O)c2C(=O)c2c(O)cc(C)cc21 (stereo unspecified)	2.5

We now examine a further compound.
The recorded TGI for `COc1ccc2c(c1)c(-c1nc(-c3cn(C)c4ncccc34)cs1)cn2CCCCN1CCOCC1` is 3.49
